# study-target: Calcium-dependent protein kinase 1 (Plasmodium falciparum (isolate 3D7)) (UniProt P62344)
# Sequence (P62344 whole entry, looked up): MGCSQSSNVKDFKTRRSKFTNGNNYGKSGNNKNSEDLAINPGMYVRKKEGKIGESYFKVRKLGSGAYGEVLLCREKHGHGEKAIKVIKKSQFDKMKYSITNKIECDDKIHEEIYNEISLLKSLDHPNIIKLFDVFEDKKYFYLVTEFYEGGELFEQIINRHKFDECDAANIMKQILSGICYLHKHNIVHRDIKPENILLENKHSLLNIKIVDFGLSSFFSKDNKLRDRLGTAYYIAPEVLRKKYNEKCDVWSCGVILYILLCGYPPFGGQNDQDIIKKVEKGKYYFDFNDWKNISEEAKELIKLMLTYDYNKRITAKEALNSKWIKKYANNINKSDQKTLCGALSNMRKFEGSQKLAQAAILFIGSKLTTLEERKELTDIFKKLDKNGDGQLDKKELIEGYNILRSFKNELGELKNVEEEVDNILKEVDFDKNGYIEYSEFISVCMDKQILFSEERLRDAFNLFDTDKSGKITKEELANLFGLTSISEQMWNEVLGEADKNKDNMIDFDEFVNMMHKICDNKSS
# test-details: PfCDPK1 kinase inhibitors, biochemical, TCAMS library (AID 1159585);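 note: inhibitors leave more ATP so luminescence rises with inhibition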
# measurement-context: recombinant PfCDPK1, Kinase-Glo ATP depletion luminescence
attribute-measured: IC50

Tell me measured IC50 for COCCNCc1cccc(-c2ccc3c(Nc4cc(O)c(Cl)cc4F)ccnc3c2)c1 please.
436 nM

Tell me measured IC50 for COc1ccc(-c2cnc3ccc(N4CCCC4)nn23)cc1OC please.
310 nM

Tell me measured IC50 for NS(=O)(=O)c1cccc(Nc2nccc(-c3c(-c4cccc(NC(=O)c5c(F)cccc5F)c4)nn4ccccc34)n2)c1 please.
20 nM

Tell me measured IC50 for CS(=O)(=O)Nc1cccc(-c2cnc3[nH]cc(-c4ccc(CN)cc4)c3c2)c1 please.
552 nM

Tell me measured IC50 for CN(C)CCNCc1cccc(-c2ccc3c(Nc4ccc(Oc5ccccn5)cc4)ccnc3c2)c1 please.
845 nM

Tell me measured IC50 for CN1CCC=C(C(=O)NCC(C)(C)c2nc(-c3ccc(Cl)c(O)c3)c(-c3ccncc3)[nH]2)C1 please.
213 nM

Tell me measured IC50 for CC(C)(CNCCOc1ccc(Cl)cc1)c1nc(-c2ccc(Cl)c(O)c2)c(-c2ccnc(N)n2)[nH]1 please.
755 nM

====

# study-target: Calcium-dependent protein kinase 1 (Plasmodium falciparum (isolate 3D7)) (UniProt P62344)
# test-details: PfCDPK1 kinase inhibitors, biochemical, TCAMS library (AID 1159585);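 note: inhibitors leave more ATP so luminescence rises with inhibition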
# measurement-context: recombinant PfCDPK1, Kinase-Glo ATP depletion luminescence
Examples of molecules with documented IC50 follow.

Tell me measured IC50 for Cc1cc(Nc2ncc(C#N)c(Nc3ccccc3C(N)=O)n2)ccc1N1CCN(C)CC1 please.
0.01 µM

Further cases:
Tell me measured IC50 for O=C(Nc1cccc(-c2nn3ncccc3c2-c2ccnc(Nc3cccc(-c4cnco4)c3)n2)c1)c1c(F)cccc1F please.
0.023 µM

Tell me measured IC50 for O=S1(=O)NCc2ccc(Nc3nccc(Nc4ccc5c(cnn5Cc5ccccc5)c4)n3)cc21 please.
0.11 µM

Tell me measured IC50 for COc1ccc(Nc2ncc3c(-c4cccc(NC(=O)Cc5ccc(O)cc5)c4)c[nH]c3n2)cc1OC please.
0.098 µM

Tell me measured IC50 for COc1ccc2nc(-c3cc(-c4ccc(NC(C)=O)cc4)cnc3N)[nH]c2c1 please.
0.501 µM

Tell me measured IC50 for COc1ccc(CNCC(C)(C)c2nc(-c3ccc(Cl)c(O)c3)c(-c3ccncc3)[nH]2)cc1 please.
0.186 µM

====

Examples of molecules with documented pIC50 follow.
# study-target: Calcium-dependent protein kinase 1 (Plasmodium falciparum (isolate 3D7))
# test-details: PfCDPK1 kinase inhibitors, biochemical, TCAMS library (AID 1159585);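 note: inhibitors leave more ATP so luminescence rises with inhibition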
# measurement-context: recombinant PfCDPK1, Kinase-Glo ATP depletion luminescence
Conceptually, pIC50 converts a concentration in mol/L into minus its log10.

Tell me measured pIC50 for O=C(NCCCN1CCCCC1)c1cccc(Nc2nccc(Nc3ccc(Oc4ccccc4)cc3)n2)c1 please.
6.61

Tell me measured pIC50 for COCCNCc1cccc(-c2ccc3c(Nc4ccc(Oc5ccccc5)cc4)ccnc3c2)c1 please.
6.01

Tell me measured pIC50 for CC(C)(CNCc1ccc(C(F)(F)F)cc1)c1nc(-c2ccc(Cl)c(O)c2)c(-c2ccnc(N)n2)[nH]1 please.
6.45

Further cases:
Tell me measured pIC50 for CN1CCN(c2ccc(Nc3nccc(-c4c(-c5cccc(NC(=O)c6c(F)cccc6F)c5)nn5ccccc45)n3)cc2)CC1 please.
7.46

Tell me measured pIC50 for O=C(Nc1cccc(-c2nn3ccccc3c2-c2ccnc(Nc3ccc(-c4ccn[nH]4)cc3)n2)c1)c1c(F)cccc1F please.
7.66

====

Examples of compounds with documented pIC50 follow.
# study-target: Calcium-dependent protein kinase 1 (Plasmodium falciparum (isolate 3D7)) (UniProt P62344)
# test-details: PfCDPK1 kinase inhibitors, biochemical, TCAMS library (AID 1159585);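 note: inhibitors leave more ATP so luminescence rises with inhibition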
# measurement-context: recombinant PfCDPK1, Kinase-Glo ATP depletion luminescence
Conceptually, pIC50 converts a concentration in mol/L into minus its log10.

Tell me measured pIC50 for CC(C)(CNC(=O)C1CCN(CCOc2ccc(Cl)cc2)CC1)c1nc(-c2ccc(Cl)c(O)c2)c(-c2ccncc2)[nH]1 please.
6.33

Tell me measured pIC50 for COCCNCc1cccc(-c2ccc3c(Nc4ccc(Oc5cccnc5)cc4)ccnc3c2)c1 please.
6.04

Tell me measured pIC50 for O=C(Nc1cccc(-c2nn3ncccc3c2-c2ccnc(Nc3ccccc3)n2)c1)c1c(F)cccc1F please.
7.41

Tell me measured pIC50 for CS(=O)(=O)CCNCc1cccc(-c2ccc3c(Nc4cc(O)c(Cl)cc4F)ccnc3c2)c1 please.
7.15

Tell me measured pIC50 for Nc1ncc(-c2cn[nH]c2)cc1-c1nc2ccc(F)cc2[nH]1 please.
6.82

Further cases:
Tell me measured pIC50 for O=C(NCCCN1CCCCC1)c1ccc(Nc2nccc(Nc3ccc(Oc4ccccc4)cc3)n2)cc1 please.
7.03

Tell me measured pIC50 for CCOC(=O)c1cccc(NC(=O)Nc2cccc(-c3ncc(OCCCN)c4c3nc(-c3nonc3N)n4CC)c2)c1 please.
6.53

Tell me measured pIC50 for COc1cc(-c2nc(C(C)(C)CN)[nH]c2-c2ccncc2)ccc1Br please.
6.80

Tell me measured pIC50 for CC(C)(CN)c1nc(-c2ccc(Cl)c(O)c2)c(-c2ccncc2)[nH]1 please.
8.00

====

# study-target: Calcium-dependent protein kinase 1 (Plasmodium falciparum (isolate 3D7))
# test-details: PfCDPK1 kinase inhibitors, biochemical, TCAMS library (AID 1159585);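 note: inhibitors leave more ATP so luminescence rises with inhibition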
# measurement-context: recombinant PfCDPK1, Kinase-Glo ATP depletion luminescence
attribute-measured: IC50

Please review the entries below; each comes with its answer.
Tell me measured IC50 for CN1CCN(c2ccc(Nc3ncc(C#N)c(Nc4ccccc4C(N)=O)n3)cc2)CC1 please.
12 nM

Tell me measured IC50 for CC(C)(NCc1ncc[nH]1)c1nc(-c2ccc(Cl)c(O)c2)c(-c2ccncc2)[nH]1 please.
144 nM

Tell me measured IC50 for O=C(Nc1c(F)cccc1F)c1cccc(-c2nn3ccccc3c2-c2ccnc(Nc3cccc(-c4cnco4)c3)n2)c1 please.
40 nM

Tell me measured IC50 for CN1CCN(CCCNCc2ccc(Nc3nccc(Nc4ccc(Oc5ccccc5)cc4)n3)cc2)CC1 please.
139 nM

Tell me measured IC50 for COCCNCc1ncsc1-c1ccc2c(Nc3cc(O)c(Cl)cc3F)ccnc2c1 please.
150 nM

Further cases:
Tell me measured IC50 for CCNC(=O)Nc1ccc(-c2cnc(N)c(-c3nc4ccc(OC)cc4[nH]3)c2)cc1 please.
145 nM

Tell me measured IC50 for O=C(NCC(c1ccc(C(F)(F)F)cc1)N1CCCC1)c1cc(-c2ccncc2)c(-c2cccc(O)c2)o1 (centres undefined) please.
283 nM

====

# study-target: Calcium-dependent protein kinase 1 (Plasmodium falciparum (isolate 3D7))
# test-details: PfCDPK1 kinase inhibitors, biochemical, TCAMS library (AID 1159585);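 note: inhibitors leave more ATP so luminescence rises with inhibition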
# measurement-context: recombinant PfCDPK1, Kinase-Glo ATP depletion luminescence
attribute-measured: IC50

Give measured IC50 for COc1cccc(CNCC(C)(C)c2nc(-c3ccc(Cl)c(O)c3)c(-c3ccncc3)[nH]2)c1 (Calcium-dependent protein kinase 1 (Plasmodium falciparum (isolate 3D7))).
275 nM

Give measured IC50 for COc1ccc(-c2cnc3ccc(NC4CCC(O)CC4)nn23)cn1 (centres undefined) (Calcium-dependent protein kinase 1 (Plasmodium falciparum (isolate 3D7))).
379 nM

Give measured IC50 for NC[C@H](CC1CCCCC1)NC(=O)c1ccc(-c2ccnc3[nH]ccc23)s1 (Calcium-dependent protein kinase 1 (Plasmodium falciparum (isolate 3D7))).
492 nM

Give measured IC50 for Nc1ncc(-c2cn[nH]c2)cc1-c1nc2ccc(Cl)cc2[nH]1 (Calcium-dependent protein kinase 1 (Plasmodium falciparum (isolate 3D7))).
834 nM

Give measured IC50 for c1ccc(Oc2ccc(Nc3ccnc4cc(-c5ccc(CNCCN6CCOCC6)o5)ccc34)cc2)cc1 (Calcium-dependent protein kinase 1 (Plasmodium falciparum (isolate 3D7))).
435 nM

Give measured IC50 for O=c1[nH]ccc2nc(N[C@@H]3CCNC3)nc(Nc3ccc4c(c3)S(=O)(=O)CC4)c12 (Calcium-dependent protein kinase 1 (Plasmodium falciparum (isolate 3D7))).
235 nM

Give measured IC50 for CCn1c(-c2nonc2N)nc2c(-c3cccc(NC(=O)Nc4ccc(C#N)cc4)c3)ncc(OCCCN)c21 (Calcium-dependent protein kinase 1 (Plasmodium falciparum (isolate 3D7))).
235 nM

Give measured IC50 for N#Cc1ccc(-c2cnc3ccc(NCCc4cccnc4)nn23)cc1 (Calcium-dependent protein kinase 1 (Plasmodium falciparum (isolate 3D7))).
246 nM

Give measured IC50 for NCCNS(=O)(=O)c1ccc(-c2ccnc3[nH]c(-c4ccncc4)cc23)cc1 (Calcium-dependent protein kinase 1 (Plasmodium falciparum (isolate 3D7))).
422 nM
